Assayed target: T1, human calcitonin receptor (human, UniProt P30988 25-474)
T1 sequence (looked up): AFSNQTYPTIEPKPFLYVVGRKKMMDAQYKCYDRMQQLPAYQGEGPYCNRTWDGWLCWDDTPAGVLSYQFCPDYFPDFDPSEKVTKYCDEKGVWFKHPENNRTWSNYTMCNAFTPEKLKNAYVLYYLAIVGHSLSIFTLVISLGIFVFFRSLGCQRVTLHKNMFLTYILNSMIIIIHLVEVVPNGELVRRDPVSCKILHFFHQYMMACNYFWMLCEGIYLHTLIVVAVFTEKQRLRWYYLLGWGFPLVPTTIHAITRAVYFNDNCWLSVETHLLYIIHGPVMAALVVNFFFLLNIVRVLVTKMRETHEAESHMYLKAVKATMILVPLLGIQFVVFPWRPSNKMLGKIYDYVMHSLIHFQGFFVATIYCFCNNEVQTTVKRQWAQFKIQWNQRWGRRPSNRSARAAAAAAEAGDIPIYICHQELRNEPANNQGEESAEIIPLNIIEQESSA
Procedure text: cell-based or functional assay
Numbered stars: 1 amine (or outer) side, 2 acyl side, 3 side chain; on linkers, the order of the positions; unused ones are H or OH. Bridge positions count the residues as written; N and C are the ends. Side chains are listed from the residue outwards. Ends that are not written are not given here. * marks the point of attachment. C20 diacid = O=C(O)CCCCCCCCCCCCCCCCCCC(=O)*; γGlu = O=C(O)[C@H](CCC(=O)[*:2])N[*:1]
Property: hCTR funct. EC50; scope: individual binders
The figure you give is taken to be in nM; do not add the unit.

Known hCTR funct. EC50 results, listed for orientation:
{"Binder": "KCNTATCATQRLAEFLRHSSPNFGAIPSSTNVGSNTY (C20 diacid-gGlu on the alpha amino group of the N-terminal residue (position 1); disulfide bridge Cys2-Cys7; C-terminal amide, also called compound 9) [N^α1-[(4S)-4-carboxy-4-(19-carboxynonadecanoylamino)butanoyl]-[Glu14,Arg17,Pro21,Pro27]-h-amylin]", "Numeric value": 1.29}
{"Binder": "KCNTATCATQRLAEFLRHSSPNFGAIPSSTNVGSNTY (C20 diacid-gGlu-2xOEG on the alpha amino group of the N-terminal residue (position 1); disulfide bridge Cys2-Cys7; C-terminal amide, also called compound 19)", "Numeric value": 5.32}

We next turn to a different binder, shown below.
Asked: Give a short answer stating reported hCTR funct. EC50 for K([γGlu-γGlu-C20 diacid])CNTATCATQRLAEFLRHSSPNFGAILSSTPVGPETY-NH2 (disulfide 2-7 (inferred)) .
Given back: 1.28
